# studySystem: AXL (human catalytic domain) (Homo sapiens)
# Construct: purchased Upstate Ltd. 14-512
# assayName: AXL (human catalytic domain) Enzyme Activity Assay (IMAP fluorescence polarisation)
# Assay type: biochemical
# appliedConditions: further data set (WW-001 through WW-169, XX-001 through XX-469, YY-001 through YY-016, ZZ-001 through ZZ-003); 150 μM ATP
pIC50: −log10 of the molar value.
recordedMetric: pIC50

COc1ccc(-c2cccc3nc(Nc4cccc(C(=O)NCCN(C)C)c4)nn23)cc1 | ≥ 7.00
c1cc(-c2ccc3c(c2)OCO3)n2nc(Nc3ccc(OCCN4CCCCC4)cc3)nc2c1 | 6.00 to 7.00
NCCNc1ccc(-c2cccc3nc(NC(=O)C4CC4)nn23)cc1 | 5.00 to 6.00
O=S(=O)(Cc1cccc(Cl)c1)n1cc(-c2cccc3nc(Nc4ccc(OCCN5CCCC5)cc4)nn23)cn1 | 6.00 to 7.00
COc1cc(-c2cccc3nc(NC(=O)C4CC4)nn23)ccc1O | 5.00 to 6.00

Prompt: State the recorded pIC50 for this entry: Cc1cc(CNc2cccc(-c3cccc4nc(Nc5ccc(OCCN6CCCC6)cc5)nn34)c2)no1
Response: 6.00 to 7.00

Prompt: State the recorded pIC50 for this entry: Cc1cc(C)cc(-c2nccc3nc(Nc4ccc(OCCN5CCCC5)cc4)nn23)c1
Response: 6.00 to 7.00

Prompt: State the recorded pIC50 for this entry: O=C(Nc1nc2cccc(-c3ccccc3)n2n1)C1CC1
Response: 6.00 to 7.00

Prompt: State the recorded pIC50 for this entry: FC(F)(F)c1cccc(COc2cccc(-c3cccc4nc(Nc5ccc(OCCN6CCCC6)cc5)nn34)c2)c1
Response: 5.00 to 6.00

----------
# studySystem: AXL (human catalytic domain) (Homo sapiens, UniProt P30530)
# Construct: purchased Upstate Ltd. 14-512
# Sequence (P30530 473-894): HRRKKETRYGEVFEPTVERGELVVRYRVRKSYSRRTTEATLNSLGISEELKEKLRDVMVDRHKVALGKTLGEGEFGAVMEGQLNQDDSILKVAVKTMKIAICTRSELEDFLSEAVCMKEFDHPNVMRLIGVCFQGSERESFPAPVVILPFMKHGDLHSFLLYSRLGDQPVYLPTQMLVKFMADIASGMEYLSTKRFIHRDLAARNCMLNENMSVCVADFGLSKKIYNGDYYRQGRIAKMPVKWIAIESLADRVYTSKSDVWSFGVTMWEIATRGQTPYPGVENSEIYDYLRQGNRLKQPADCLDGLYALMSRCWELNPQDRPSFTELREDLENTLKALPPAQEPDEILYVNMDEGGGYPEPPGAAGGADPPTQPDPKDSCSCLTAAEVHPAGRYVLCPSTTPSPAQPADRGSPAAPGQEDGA
# assayName: AXL (human catalytic domain) Enzyme Activity Assay (IMAP fluorescence polarisation)
# Assay type: biochemical
# appliedConditions: first data set; recombinant AXL isoform 1 aa473-894, 150 μM ATP
# Protocol: Biological Methods AXL (human catalytic domain) Enzyme Activity Assay Reagents Kinase Assay Reaction Buffer: This consisted of 20 mM HEPES pH 7.0, 10 mM MgCl2, 1 mM DTT, […], 0.01% Triton X100 (v/v), and 0.01% BSA (w/v). All buffer components were purchased from Sigma-Aldrich at reagent grade or higher. […] ATP: Supplied by Sigma (product code A-7699). […] Final ATP concentration in the assay was 150 μM; this concentration represents the KM.ATP for this enzyme calculated in this assay. […]
IC50 values by entry

CN(C)CCNC(=O)c1cccc(Nc2nc3cccc(-c4ccc5c(c4)OCCO5)n3n2)c1 | < 1 µM
O=C(Nc1nc2cccc(-c3ccc4ncccc4c3)n2n1)C1CC1 | < 1 µM
COc1ccc(-c2cccc3nc(Nc4cccc(C(=O)NCCN(C)C)c4)nn23)cc1 | < 1 µM

Prompt: State the recorded IC50 for this entry: O=C(Nc1nc2cccc(Nc3cccc(Cl)c3)n2n1)C1CC1
Response: 1 to 10 µM

Prompt: State the recorded IC50 for this entry: CN(C)C(=O)c1ccc(-c2cccc3nc(NC(=O)C4CC4)nn23)cc1
Response: 1 to 10 µM
